Ref: patent US10995101B2

experiment: in vitro; settings: human, Caco-2, pH 7.4
Each entry below carries its recorded efflux ratio at 120 min, 2 μM.
Parameter measured: efflux ratio at 120 min, 2 μM

* CNCCN(C)C(=O)c1ccc(N2CCN(CCn3c(=O)sc4c3nc(N)n3nc(-c5ccco5)nc43)CC2)c(F)c1 | 205
* Nc1nc2c(sc(=O)n2CCN2CCN(c3ccc(C(=O)NCC4COCCN4)cc3F)CC2)c2nc(-c3ccco3)nn12 (stereo not shown) | 680
* C[S@@+]([O-])CCOc1ccc(N2CCN(CCn3c(=O)sc4c3nc(N)n3nc(-c5ccco5)nc43)CC2)c(F)c1 (single isomer, unassigned) | 59
* CN(CC[S@@+](C)[O-])C(=O)c1cc(N2CCN(CCn3c(=O)sc4c3nc(N)n3nc(-c5ccco5)nc43)CC2)c(F)cc1F | 421
* Nc1nc2c(sc(=O)n2CCN2CCN(c3cc(OC[C@H](O)CO)c(F)cc3F)CC2)c2nc(-c3ccco3)nn12 | 419
* NCCNC(=O)COc1ccc(N2CCN(CCn3c(=O)sc4c3nc(N)n3nc(-c5ccco5)nc43)CC2)c(F)c1 | 34
* CN(C)CCN(C)C(=O)c1cc(N2CCN(CCn3c(=O)sc4c3nc(N)n3nc(-c5ccco5)nc43)CC2)c(F)cc1F | 60
* Nc1nc2c(sc(=O)n2CCN2CCN(c3ccc(OCC(O)C(F)(F)F)cc3F)CC2)c2nc(-c3ccco3)nn12 (stereo not shown) | 7
* Nc1nc2c(sc(=O)n2CCN2CCN(c3ccc(C(=O)NCCNCCO)cc3F)CC2)c2nc(-c3ccco3)nn12 | 53
* Nc1nc2c(sc(=O)n2CCN2CCN(c3ccc(OCC(=O)O)cc3F)CC2)c2nc(-c3ccco3)nn12 | 26

* * *

Catalogue of IC50 readings, one per entry.
molecular target: A2A receptor (Homo sapiens); assay: Inhibition of cAMP production in HEK cells; format: cell-based; settings: IC50 (nM) (5 μM Adenosine as agonist, 2.0% HSA), HEK-293 cells with A2A receptor, 5 μM Adenosine as agonist, 2.0% HSA
Sequence (P29274 whole entry): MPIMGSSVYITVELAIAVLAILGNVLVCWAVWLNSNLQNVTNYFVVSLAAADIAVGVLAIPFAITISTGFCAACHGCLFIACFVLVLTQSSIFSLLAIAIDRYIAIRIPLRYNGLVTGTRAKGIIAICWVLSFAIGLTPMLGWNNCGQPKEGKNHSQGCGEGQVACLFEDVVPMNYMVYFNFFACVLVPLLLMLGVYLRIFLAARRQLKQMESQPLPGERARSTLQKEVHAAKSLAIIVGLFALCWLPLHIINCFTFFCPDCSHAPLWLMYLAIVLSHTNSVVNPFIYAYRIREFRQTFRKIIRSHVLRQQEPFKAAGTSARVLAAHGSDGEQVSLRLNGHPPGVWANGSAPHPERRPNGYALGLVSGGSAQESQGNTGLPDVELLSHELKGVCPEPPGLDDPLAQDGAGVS
Parameter measured: IC50

- Nc1nc2c(sc(=O)n2CCN2CCN(c3ccc(OC4CCNCC4)cc3F)CC2)c2nc(-c3ccco3)nn12: 43 nM
- Nc1nc2c(sc(=O)n2CCN2CCN(c3cc(O[C@H]4CC[S@@+]([O-])CC4)c(F)cc3F)CC2)c2nc(-c3ccco3)nn12: 91 nM
- CN(C)CCNC(=O)COc1ccc(N2CCN(CCn3c(=O)sc4c3nc(N)n3nc(-c5ccco5)nc43)CC2)c(F)c1: 16 nM
- Nc1nc2c(sc(=O)n2CCN2CCN(c3ccc(N4CC[S+]([O-])CC4)cc3F)CC2)c2nc(-c3ccco3)nn12: 78 nM
- Nc1nc2c(sc(=O)n2CCN2CCN(c3ccc(O[C@@H]4COC[C@H]4O)cc3F)CC2)c2nc(-c3ccco3)nn12: 212 nM
- Nc1nc2c(sc(=O)n2CCN2CCN(c3ccc(CCC(=O)O)cc3F)CC2)c2nc(-c3ccco3)nn12: 261 nM
- C[S@@+]([O-])CCOc1ccc(N2CCN(CCn3c(=O)sc4c3nc(N)n3nc(-c5ccco5)nc43)CC2)c(F)c1 (single isomer, unassigned): 179 nM
- Nc1nc2c(sc(=O)n2CCN2CCN(c3ccc(O[C@H]4CNC[C@@H]4F)cc3F)CC2)c2nc(-c3ccco3)nn12: 185 nM
- CNCCNC(=O)COc1ccc(N2CCN(CCn3c(=O)sc4c3nc(N)n3nc(-c5ccco5)nc43)CC2)c(F)c1: 13 nM
- Nc1nc2c(sc(=O)n2CCN2CCN(c3ccc(OC4CCNC4)cc3F)CC2)c2nc(-c3ccco3)nn12 (stereo not shown): 9 nM
- C[S@+]([O-])CCOc1ccc(N2CCN(CCn3c(=O)sc4c3nc(N)n3nc(-c5ccco5)nc43)CC2)c(F)c1 (single isomer, unassigned): 241 nM
- Nc1nc2c(sc(=O)n2CCN2CCN(c3ccc(C(=O)O)cc3F)CC2)c2nc(-c3ccco3)nn12: 127 nM
- CN(CC[S@@+](C)[O-])C(=O)c1cc(N2CCN(CCn3c(=O)sc4c3nc(N)n3nc(-c5ccco5)nc43)CC2)c(F)cc1F: 245 nM
- Nc1nc2c(sc(=O)n2CCN2CCN(c3ccc(O[C@H]4CNC[C@H]4F)cc3F)CC2)c2nc(-c3ccco3)nn12: 45 nM
- CN(C)CCN(C)C(=O)c1ccc(N2CCN(CCn3c(=O)sc4c3nc(N)n3nc(-c5ccco5)nc43)CC2)c(F)c1: 25 nM
- Nc1nc2c(sc(=O)n2CCN2CCN(c3cc(OCC(=O)NCCN4CCOCC4)c(F)cc3F)CC2)c2nc(-c3ccco3)nn12: 30 nM
- Nc1nc2c(sc(=O)n2CCN2CCN(c3ccc(OCC(=O)NCCN4CCOCC4)cc3F)CC2)c2nc(-c3ccco3)nn12: 95 nM
- CS(=O)(=O)CCOc1ccc(N2CCN(CCn3c(=O)sc4c3nc(N)n3nc(-c5ccco5)nc43)CC2)c(F)c1: 130 nM
- Nc1nc2c(sc(=O)n2CCN2CCN(c3cc(O[C@@H]4CNC[C@@H]4F)c(F)cc3F)CC2)c2nc(-c3ccco3)nn12: 33 nM
